# assayed.system: M1-linked di-ubiquitin (UniProt P0CG48 1-76; P0CG48 1-76)
# assay.comment: ITC
recorded.endpoint: Kd (µM)
Give bare numbers, in µM.

Task item: Check the records and state Kd for mouse HOIL-1L NZF domain (residues Pro192-Gln250) T207E (domain or fragment) GPLGSPEPVGWQCPGCTFINKPERPGCEMCCRARPETYQIPASYQPDEEERARLAGEEEALRQYQQ
Reply: 15.9
